- Measurement Description: NCI Yeast Anticancer Drug Screen. Data for the cln2 rad14 strain (AID 165);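 also: 0% = growth equal to vehicle treated cultures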
- Condition Notes: S. cerevisiae cln2 rad14 strain, at 50.0 µM, stronger effect = higher value
The panel holds about 79,000 compounds, 15% with a hit somewhere; the sample as a whole holds those more often.
Value Kind: growth inhibition (%)
I only need the number, in %, no unit after it.

Study these solved cases before continuing.
CCOc1ccc2nc(NC(=O)CC(C)=O)sc2c1 = 7.6
C[N+](C)(N)Cc1csc(-c2ccc(Cl)cc2)n1 = -8.1
Cc1c(NC(=O)Nc2c(Cl)cccc2Cl)c(=O)n(-c2ccccc2)n1C = -10.2

For `CCOP(=O)(Cc1ccc(CP(=O)(OCC)OCC)n1C)OCC` the molecule record lists growth inhibition as 17.4

Note to self: growth inhibition recorded for `Cn1ncc2c(=S)[nH]c(=S)[nH]c21` was 7.85

Recorded result, O=C(O)C1(C(=O)O)CC2C3C=CC(C3)C2C1 (centres undefined) , growth inhibition: -48.8

---

- Measurement Description: NCI Yeast Anticancer Drug Screen. Data for the rad50 strain (AID 155);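 also: 0% = growth of vehicle-only cultures of the same strain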
- Condition Notes: S. cerevisiae rad50 strain growth inhibition; at 50.0 µM; stronger effect = higher value
About 79,000 compounds went through this panel and 15% of them were active in at least one assay; those are over-represented in the sample as a whole. Where a SMILES comes first, the peptide text is derived from it. The star is where a group is joined. Cbz = O=C(OCc1ccccc1)*; Bn = c1ccc(C*)cc1
Value Kind: growth inhibition (%)
Report only the number, with the unit % understood.

Example results:
O=C(/C=C/c1ccc(O)c(O)c1)c1ccc(O)c(O)c1O = 14.3
CN=C(NN)NS(=O)(=O)c1cc(C)c(Cl)cc1S = -12.6
COc1ccc(/C=C2\CCC(C)(CN(C)C)C2=O)cc1 (stereo unspecified) = 36.5
COc1cccc(C(=O)NNC(=O)c2cccc(OC)c2)c1 = -1.5
CC(C)C(=O)c1ccccc1Cl = 2.85

The recorded growth inhibition for entry `Cc1nnc2n(c1=O)CCN2C` equals -1.65

growth inhibition for `Cc1nc(-n2nc(-c3ccccc3)cc2-c2ccccc2)sc1C(=O)CC(=O)C(=O)Nc1ccc(Cl)c(Cl)c1` is 6.15

growth inhibition reported for this molecule `C/C=C/c1ccc(O)c(OC)c1` : 13.1

Entry `CNC(=S)SCc1ccc(Cl)cc1` ; growth inhibition = -10.6

Consider `CSc1cc2c(cc1N)C(=O)c1ccccc1-2` . Its measured growth inhibition is 12.5

GET /value?item= `CC1=C2N3C[C@@H](n4c(=O)n(C)c(=O)n43)C23CCC1n1c(=O)n(C)c(=O)n13` &field=growth inhibition returns -7.1

Just so you know, measured growth inhibition for `CCCCCCCCCC(=O)N/N=C/c1c[nH]c2ccccc12` came out at 0.95

The molecule identified as `O=c1[nH]c2cc(Cl)c([N+](=O)[O-])cc2c2ccc(Cl)cc12` registered its growth inhibition at 3.15

Entry `CN(C)CCC(/C=C/c1ccccc1)=N\Nc1ccccc1` , growth inhibition reported as 19.6

Measured growth inhibition, `O=C(O)c1ccc(F)cc1F` : 6.25

Recorded result, `Cc1cc(Br)cc(Cl)c1O` , growth inhibition: -22.1

Recorded result, O=C(Nc1ccccc1)C1C2C=CC(C2)C1C(=O)Nc1ccccc1 (stereo unspecified) , growth inhibition: 0.2

The measured growth inhibition associated with `N#C/C(=C\c1ccccc1)c1cccc(Br)c1` reads 3.9

Reported growth inhibition for `Cc1nc(N)c(N=O)c(=O)[nH]1` was 13.2

According to the records, this molecule `O=C(c1ccccc1)N1C(=O)c2ccccc21` displays growth inhibition of -11.1

// field: growth inhibition; key: `Cc1onc2c1c(=O)n(C)c(=O)n2C` ; value = -6.25

// field: growth inhibition; key: CC(C)C(NC(=O)C(CSCc1ccccc1)NC(=O)OCc1ccccc1)C(N)=O (stereo unspecified) (Cbz-Cys(Bn)-Val-NH2; configuration not given here) ; value = 8.8

molecule `CCOc1cc2c(cc1Cc1ccc3c(c1)OCO3)OCO2` , growth inhibition observed: -8.15

---

- Measurement Description: NCI Yeast Anticancer Drug Screen. Data for the mlh1 rad18 strain (AID 175)
- Condition Notes: S. cerevisiae mlh1 rad18 strain growth inhibition; at 50.0 µM; stronger effect = higher value
Compounds without any hit were thinned out: in the full panel of roughly 79,000, 15% have a hit. Active and inactive are the calls of the source. No stated cut-off is given here; in the data, active means growth inhibition above about 70%; inactive means the rest.
Value Kind: growth inhibition

Worked set:
CCC(/C=C/c1ccccc1)=N\NC(=O)c1ccc(Cl)cc1 = 7.95% (inactive)
CC(C)N(C(C)C)C1C=CC(N(C(C)C)C(C)C)CC1 (configuration not stated) = -0.35% (inactive)
CC1(O)CC2C=CC1CC2 (configuration not stated) = 13.8% (inactive)
CN1CCC(C)(c2ccccc2)C(=O)C1 (configuration not stated) = 12.7% (inactive)
O=S(=O)(O)C(c1ccccc1)C(O)c1ccccc1 (configuration not stated) = -0.25% (inactive)

Value of growth inhibition reported for the molecule CC1CCc2c(nc(C#N)c(=N)n2O)C1 (configuration not stated) is -6.75% (inactive)

growth inhibition for Nc1nc(Cl)c2ncn(C3OC(CO)C(O)C3O)c2n1 (configuration not stated) is 1.4% (inactive)

---

Measured growth inhibition, listed per entry for reference.
- Measurement Description: NCI Yeast Anticancer Drug Screen. Data for the mlh1 rad18 strain (AID 175)
- Condition Notes: S. cerevisiae mlh1 rad18 strain growth inhibition; at 50.0 µM; stronger effect = higher value
This is part of a sample that, as a whole, favours compounds with a hit. Of some 79,000 tested, about 15% had one in any assay.
# output: bare number, implied unit %

c1ccc(CCCCc2ccccn2)cc1 = 25

Sample CC1(C)C[C@@H]2C1CCC1(C)CC2(O)CC[C@H]1O (some centres not stated) ; growth inhibition observed: -17.9

For record COC(=O)c1cc2c(cc1CC(Cc1ccc3c(c1)CCCC3)C(=O)OC)CCCC2 (configuration not stated) the listed growth inhibition is -5.15

Recorded result, `Nc1nc2c(C(=O)c3cccs3)nnn2c2cccc(Cl)c12` , growth inhibition: -2.25

Quick note, growth inhibition for `c1ccc(-c2cc(-c3ccncc3)c(-c3ccccc3)nn2)cc1` landed at 36.4

Lab note: measured growth inhibition of `Cc1ccccc1C1=CCCCCC1` was -9.8

get_value(item= `CCCOc1cc2c(cc1C(C)(C)c1ccccc1)OCO2` , readout=growth inhibition) returns -15.4

---

Examples of molecules with documented growth inhibition follow.
- Measurement Description: NCI Yeast Anticancer Drug Screen. Data for the mec2-1 strain (AID 157)
- Condition Notes: S. cerevisiae mec2-1 strain, at 50.0 µM, stronger effect = higher value
This is part of a sample that, as a whole, favours compounds with a hit. Of some 79,000 tested, about 15% had one in any assay.
Please respond with the number in % and leave the unit unwritten.

COc1cc2c(c3c1/c(=N\N=c1/c4ccccc4n(C)c4c5c(cc(OC)c14)OC(C)(C)C=C5)c1ccccc1n3C)C=CC(C)(C)O2 = 13.6
OCCc1cc2ccccc2c2ccccc12 = 6.75
COc1cc2c(cc1C(C)c1ccc(OCc3ccccc3)cc1)OCO2 (stereo not drawn) = -1.1
COc1cc(-c2cc(OC)c(N)cc2Br)c(Br)cc1N = 17.2
COc1cccc(-c2cc(=O)c3cc(N4CCCC4)ccc3[nH]2)c1 = -15.2

So, `C/C=C(/C)c1cccc(OCc2ccccc2)c1OCc1ccccc1` ? Its growth inhibition was 9.35

The measured growth inhibition associated with `Cn1c2nc(-[n+]3ccc(N4CCOCC4)cc3)nc-2c([O-])n(C)c1=O` reads 1.1

growth inhibition for `C/C=C\CCCCC` is 9.4

Value of measured growth inhibition for the entry CC1C2(c3ccccc3)C(C(=O)c3ccccc3)NC(c3ccccc3)C12c1ccccc1 (stereo not drawn) : 6.35

For record `C=C(C)COc1ccc(-c2ccccc2)cc1` the listed growth inhibition is 7.35

Kindly note the recorded growth inhibition for `O=C([O][Sb]([O]C(=O)C(Br)Br)([c]1ccccc1)([c]1ccccc1)[c]1ccccc1)C(Br)Br` , which is 5

# growth inhibition (molecule: `Nc1ccc(S(=O)(=O)NNc2nc(N3CCCCC3)nc(N3CCCCC3)n2)cc1` ) is 1.95

Lab note: measured growth inhibition of `O=c1[nH]cnc2c1CN(c1ccc(Cl)cc1)C2` was 3.45

// growth inhibition lookup, molecule = `CN(C)Cc1nsc(N(C)C)n1` , result: -9.1

Recorded growth inhibition (molecule `COC(=O)C(CNc1ccc(S(N)(=O)=O)cc1)=[N+]=[N-]` ): 13.3

The molecule listed as `CCOc1ccccc1C(=O)Oc1ccc(C)cc1` has a reported growth inhibition of -19.2

Per the record, `CC1=C(c2cc(C(=O)Nc3ccc(Cl)cc3)nc(=S)[nH]2)Sc2ccccc2N1` has growth inhibition of -15.2

Reported growth inhibition ( `CC1(C)S[C@@H]2[C@H](NC(=O)/C=C/c3ccccc3)C(=O)N2[C@H]1C(=O)O` ) = 9.5

# growth inhibition (molecule: CC(=O)OCC(OC(C)=O)C(OC(C)=O)C(C=NN(C(C)=O)S(=O)(=O)c1ccc(/C=C2\NC(=O)NC2=O)cc1)OC(C)=O (stereo not drawn) ) is -30.9

growth inhibition reading for `CC[N+](C)(CC)c1cccc(OC(=O)Nc2ccc(OC)cc2)c1` : 5.25
